Values compiled from patent US11306095B2.

Assign melting point to each entry below.

Sample records with melting point:
Cc1cc(Nc2ncc3nc(C(C)C)c(=O)n([C@H]4CCN(C(=O)/C=C/CN(C)C)C4)c3n2)ccc1N1CCN(C)CC1 159.9 to 160.7 °C
COc1cc(N2CCN(C)CC2)ccc1Nc1ncc2ncc(=O)n(C3CCN(C(=O)/C=C/CN(C)C)CC3)c2n1 157.3 to 157.6 °C
C=CC(=O)Nc1cccc(-n2c(=O)cnc3cnc(Nc4ccc(N5CCN(C)CC5)cc4OCOC)nc32)c1 187.3 to 188.1 °C

Batch request: melting point for each of the following compounds.
1. C=CC(=O)Nc1cccc(-n2c(=O)c(-c3ccc(F)c(F)c3)nc3cnc(Nc4ccc(N5CCN(C)CC5)cc4OC)nc32)c1
2. C=CC(=O)Nc1cccc(-n2c(=O)c(C(C)C)nc3cnc(Nc4ccc(N5CCN(C)CC5)c(OC)c4)nc32)c1
3. C=CC(=O)N1CCC[C@@H](n2c(=O)c(C3CCCCC3)nc3cnc(Nc4ccc(N5CCN(C)CC5)cc4OC)nc32)C1

Completion:
> 300 °C
249 to 249.5 °C
94.2 to 94.7 °C

###

Test system: H1975 cells (EGFR L858R/T790M)
protocolSummary: Inhibitory activity on cell proliferation, H1975
Assay type: cell-based
settings: Homo sapiens, NCI-H1975; H1975, 72 hours; read-out: Inhibitory activity on proliferation of cells (IC50, μM) H1975
quantityName: IC50 (µM)
Answers are plain numbers, in µM.

Batch request: IC50 for each of the following compounds.
1. Cc1cc(Nc2ncc3nc(C(C)C)c(=O)n([C@H]4CCN(C(=O)/C=C/CN(C)C)C4)c3n2)ccc1N1CCN(C)CC1
2. C=CC(=O)Nc1cccc(-n2c(=O)c(-c3cccc(OC)c3)nc3cnc(Nc4ccc(N5CCN(C)CC5)cc4OC)nc32)c1
3. C=CC(=O)N1CCC[C@@H](Cn2c(=O)c(C(C)C)nc3cnc(Nc4ccc(N5CCN(C)CC5)cc4OC)nc32)C1

Completion:
1: 2.2; 2: 0.225; 3: 4.49

###

studySystem: Wild type EGFR (Homo sapiens)
Construct: purchased Invitrogen PV3872
Sequence (P00533 25-1210): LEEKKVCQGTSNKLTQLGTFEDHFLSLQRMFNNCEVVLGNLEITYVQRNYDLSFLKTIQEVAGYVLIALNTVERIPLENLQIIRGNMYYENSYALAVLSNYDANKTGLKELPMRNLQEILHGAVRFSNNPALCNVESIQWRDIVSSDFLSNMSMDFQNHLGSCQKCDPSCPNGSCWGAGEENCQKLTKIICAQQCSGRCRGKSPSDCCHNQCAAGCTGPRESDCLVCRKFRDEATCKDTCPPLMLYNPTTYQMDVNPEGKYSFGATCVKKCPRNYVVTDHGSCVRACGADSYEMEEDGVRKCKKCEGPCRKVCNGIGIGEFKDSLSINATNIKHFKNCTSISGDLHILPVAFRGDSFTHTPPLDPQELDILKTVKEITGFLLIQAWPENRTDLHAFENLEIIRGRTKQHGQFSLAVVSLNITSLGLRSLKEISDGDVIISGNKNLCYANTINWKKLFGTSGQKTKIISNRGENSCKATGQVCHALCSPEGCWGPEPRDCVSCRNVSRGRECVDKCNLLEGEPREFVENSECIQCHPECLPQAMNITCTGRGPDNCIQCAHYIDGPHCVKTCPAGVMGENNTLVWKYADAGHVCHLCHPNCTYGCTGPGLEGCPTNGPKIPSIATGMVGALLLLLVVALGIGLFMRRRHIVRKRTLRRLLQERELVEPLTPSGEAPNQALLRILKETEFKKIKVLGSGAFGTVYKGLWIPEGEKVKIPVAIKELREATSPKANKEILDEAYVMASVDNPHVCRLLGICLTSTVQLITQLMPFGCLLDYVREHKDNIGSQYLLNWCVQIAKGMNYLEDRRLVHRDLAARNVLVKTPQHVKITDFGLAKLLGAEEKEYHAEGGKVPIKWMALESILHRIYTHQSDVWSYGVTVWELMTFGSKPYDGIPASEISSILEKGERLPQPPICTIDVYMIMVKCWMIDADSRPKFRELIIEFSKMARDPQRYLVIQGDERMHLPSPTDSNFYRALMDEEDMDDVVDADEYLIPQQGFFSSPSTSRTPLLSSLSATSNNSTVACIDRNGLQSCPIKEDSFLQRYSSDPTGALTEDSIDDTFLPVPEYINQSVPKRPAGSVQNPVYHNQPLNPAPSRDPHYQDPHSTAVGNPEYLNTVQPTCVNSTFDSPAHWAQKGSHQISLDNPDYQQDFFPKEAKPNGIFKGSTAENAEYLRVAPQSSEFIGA
protocolSummary: Kinase activity test (FRET), wild type EGFR
Format: biochemical
settings: wild type EGFR; read-out: Inhibitory activity of EGFR on kinase (IC50, nM) WT
quantityName: IC50

compound	IC50
C=CC(=O)Nc1cccc(-n2c(=O)c(-c3ccc(OC)cc3)nc3cnc(Nc4ccc(N5CCN(C)CC5)cc4OC)nc32)c1	1.5 nM
C=CC(=O)N1CCC(n2c(=O)c(-c3ccccc3)nc3cnc(Nc4ccc(N5CCN(C)CC5)c(C)c4)nc32)C1 (stereo not shown)	19.2 nM
Cc1cc(Nc2ncc3nc(C(C)C)c(=O)n([C@H]4CCN(C(=O)/C=C/CN(C)C)C4)c3n2)ccc1N1CCN(C)CC1	> 1000 nM

Batch request: IC50 for each of the following compounds.
1. C=CC(=O)N1CCC[C@@H](n2c(=O)cnc3cnc(Nc4ccc(N5CCN(C)CC5)cc4OC)nc32)C1
2. C=CC(=O)N1CCC[C@@H](Cn2c(=O)cnc3cnc(Nc4ccc(N5CCN(C)CC5)cc4OC)nc32)C1
3. C=CC(=O)Nc1cccc(-n2c(=O)cnc3cnc(Nc4cc(C)c(N5CCN(C)CC5)cc4OC)nc32)c1
4. C=CC(=O)N1CCC[C@@H](n2c(=O)c(-c3ccccc3)nc3cnc(Nc4ccc(N5CCN(C)CC5)cc4OC)nc32)C1

Completion:
["> 10000 nM", "4700 nM", "106 nM", "> 1000 nM"]
